- experiment: growth suppression of yeast trafficking mutant, preliminary HTS, modulators of trafficking downstream of Golgi apparatus project, 1536-format plate, OD 615 nm (AID 637); also: test concentration not given here
- condition.label: yeast transport mutant growth, absorbance 615 nm, 18 h; stronger effect = higher value
Below: a set of entries, each annotated with reported inhibition.
result.type: inhibition (%)

{"compound": "Cc1nc2sc(C(c3ccco3)N3CCN(c4ccccc4F)CC3)c(O)n2n1 (stereo not drawn)", "result.type": "inhibition", "data.value": 0.95}
{"compound": "CCOC(=O)c1nnn(-c2nonc2N)c1CN1CCc2ccccc2C1", "result.type": "inhibition", "data.value": -3.02}
{"compound": "CCOC(=O)C1=C(C)Nc2nnnn2C1c1c[nH]c2ccccc12 (stereo not drawn)", "result.type": "inhibition", "data.value": 15.6}
{"compound": "COC(=O)COc1nc(C)c(Br)c(OC)n1", "result.type": "inhibition", "data.value": 7.54}
{"compound": "CCOC(=O)c1ccc(N2C(=O)CC(NC3CCN(C(=O)c4ccc(F)cc4)CC3)C2=O)cc1 (stereo not drawn)", "result.type": "inhibition", "data.value": -5}
{"compound": "COC(=O)Nc1ccc(NC(C)=O)cc1", "result.type": "inhibition", "data.value": -8.36}
{"compound": "O=S(=O)(NC1CCCC1)c1ccccc1Cl", "result.type": "inhibition", "data.value": 6.39}
{"compound": "Cc1cc(C(=O)NCc2cccnc2)n(-c2ccccc2)n1", "result.type": "inhibition", "data.value": -6.07}
{"compound": "C=CCn1c(SCC(=O)Nc2ccccc2OC)nnc1-c1ccco1", "result.type": "inhibition", "data.value": 2.9}
{"compound": "COc1ccc(C(=O)Nc2cccc(C)c2)cc1S(=O)(=O)N1CCOCC1", "result.type": "inhibition", "data.value": -5.71}
{"compound": "O=C(NCc1cccnc1)C1CCCN(S(=O)(=O)c2ccc(Cl)cc2)C1 (stereo not drawn)", "result.type": "inhibition", "data.value": -1.75}
{"compound": "Cc1cccc(N2CCN(C(=O)Cn3ccc4ccccc4c3=O)CC2)c1C", "result.type": "inhibition", "data.value": -2.91}
{"compound": "CC(=O)O[C@H]1CSC[C@H]1NC(=O)c1ccccc1", "result.type": "inhibition", "data.value": -1.77}
{"compound": "COc1ccccc1-c1nc(C#N)c(N2CCN(c3ccccc3)CC2)o1", "result.type": "inhibition", "data.value": 3.65}
{"compound": "CC1CCN(C(=O)CN2C(=O)C(C)(C)Oc3ccc(C(=O)NC4CCCC4)cc32)CC1", "result.type": "inhibition", "data.value": -7.05}
{"compound": "COc1cccc(S(=O)(=O)Nc2cccnc2)c1", "result.type": "inhibition", "data.value": -3.71}
{"compound": "COc1cc(C2c3c(oc4c(C)cc(C)cc4c3=O)C(=O)N2Cc2cccnc2)cc(OC)c1OC (stereo not drawn)", "result.type": "inhibition", "data.value": -3.06}
{"compound": "O=C(CS(=O)CC(=O)Nc1cccc2c1CCCC2)Nc1ccc(F)cc1 (stereo not drawn)", "result.type": "inhibition", "data.value": 4.1}
{"compound": "CC(=O)Nn1c(C)nnc1-n1nc(C)cc1C", "result.type": "inhibition", "data.value": -1.64}
{"compound": "Cc1onc(-c2ccccc2Cl)c1C(=O)Nc1cccc(-c2cn3cccnc3n2)c1", "result.type": "inhibition", "data.value": -1.82}
{"compound": "COC(=O)c1ccccc1NC(=O)CC(NCc1ccccc1)C(=O)O (stereo not drawn)", "result.type": "inhibition", "data.value": -12.3}
{"compound": "CCOC(=O)c1cccc(NC(=O)CSc2nc3ccccc3c(=O)n2CC)c1", "result.type": "inhibition", "data.value": 0.48}
{"compound": "Cc1n[nH]c(C)c1S(=O)(=O)N1CCCCCC1", "result.type": "inhibition", "data.value": -3.17}
